assay: IV/PO pharmacokinetic study, NHP (cyno); assay type: in vivo; settings: cynomolgus monkey, plasma, iv 1 mg/kg, read-out: CLp
Measurement name: clearance (mL/min/kg)

>  <Smiles entry>
CC(=O)N1CCC(n2ncc(Cl)c2C(=O)Nc2ncc(C#Cc3ccccc3)cc2C)CC1

>  <Measurement name>
clearance

>  <Recorded number>
13.3

$$$$
>  <Smiles entry>
CC(=O)N1CC[C@@H](n2ncc(Cl)c2C(=O)Nc2ncc(C#Cc3ccc(F)cc3)cc2C)[C@H](F)C1

>  <Measurement name>
clearance

>  <Recorded number>
6.5

$$$$

###

assay: IV/PO pharmacokinetic study, rat (SD); format: in vivo; settings: Sprague-Dawley, plasma, iv 1 mg/kg, read-out: Vss
Here the recorded Vd is given for each entry.
Measurement name: Vd (L/kg)

>  <Smiles entry>
CC(=O)N1CC[C@@H](n2ncc(Cl)c2C(=O)Nc2ncc(C#Cc3ccc(F)cc3)cc2C)[C@H](F)C1

>  <Recorded number>
2.7

$$$$
>  <Smiles entry>
CC(=O)N1CCC(n2ncc(Cl)c2C(=O)Nc2ncc(C#Cc3ccccc3)cc2C)CC1

>  <Recorded number>
2.2

$$$$

###

experiment: IV/PO pharmacokinetic study, NHP (cyno); assay type: in vivo; settings: cynomolgus monkey, plasma, po 1 mg/kg

>  <Compound>
CC(=O)N1CC[C@@H](n2ncc(Cl)c2C(=O)Nc2ncc(C#Cc3ccc(F)cc3)cc2C)[C@H](F)C1 [Compound 11]

>  <Cmax / ng/mL>
260

$$$$
>  <Compound>
CC(=O)N1CCC(n2ncc(Cl)c2C(=O)Nc2ncc(C#Cc3ccccc3)cc2C)CC1 [Compound 10]

>  <Cmax / ng/mL>
152

$$$$

###

assay: Liver microsome intrinsic clearance, mouse; format: in vitro ADME; conditions: pH 7.4; mouse liver microsomes, predicted intrinsic clearance; read-out: LMS CLINT mouse

>  <Compound>
Cc1cc(C#Cc2ccccc2)cnc1NC(=O)c1cc(OCC2COCCO2)ccc1Cl (stereo not shown) [Compound 13c]

>  <Readout units>
mL/min/kg

>  <CLint scaled at 1 µM>
107

$$$$
>  <Compound>
Cc1cc(C#Cc2ccccc2)cnc1NC(=O)c1cc(C(=O)N2CC(F)(F)C2)ccc1Cl [Compound 13a]

>  <Readout units>
mL/min/kg

>  <CLint scaled at 1 µM>
75

$$$$
>  <Compound>
Cc1cc(C#Cc2ccccc2)cnc1NC(=O)c1cc(-c2noc(C3CCOC3)n2)ccc1Cl (stereo not shown) [Compound 13b]

>  <Readout units>
mL/min/kg

>  <CLint scaled at 1 µM>
68

$$$$
>  <Compound>
Cc1cc(C#Cc2ccccc2)cnc1NC(=O)c1cc(OC[C@@H]2COCCO2)ccc1Cl

>  <Readout units>
mL/min/kg

>  <CLint scaled at 1 µM>
88

$$$$

###

Observed IC50, system CYP 1A2 (Homo sapiens, UniProt P05177).
Measurement name: IC50 (µM)

>  <Compound>
CC(=O)N1CCC(n2ncc(Cl)c2C(=O)Nc2ncc(C#Cc3ccccc3)cc2C)CC1 [Compound 10]

>  <Target system>
CYP 1A2 (Homo sapiens, UniProt P05177)
Sequence (P05177 whole entry): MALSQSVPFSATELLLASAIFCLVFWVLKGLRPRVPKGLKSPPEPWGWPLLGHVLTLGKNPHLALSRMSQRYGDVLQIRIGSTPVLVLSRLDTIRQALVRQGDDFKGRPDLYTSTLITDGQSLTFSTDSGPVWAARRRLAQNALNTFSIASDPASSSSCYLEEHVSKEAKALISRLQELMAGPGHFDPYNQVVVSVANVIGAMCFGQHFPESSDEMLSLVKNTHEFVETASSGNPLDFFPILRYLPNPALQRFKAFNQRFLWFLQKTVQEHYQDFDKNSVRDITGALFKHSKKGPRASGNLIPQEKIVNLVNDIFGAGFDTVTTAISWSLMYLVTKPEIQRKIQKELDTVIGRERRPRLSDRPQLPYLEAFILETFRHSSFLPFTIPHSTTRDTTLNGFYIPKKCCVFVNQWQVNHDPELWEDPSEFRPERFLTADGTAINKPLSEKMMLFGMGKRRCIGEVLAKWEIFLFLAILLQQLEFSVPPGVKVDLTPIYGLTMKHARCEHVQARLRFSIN

>  <Readout units>
µM

>  <Result modifier>
=

>  <Recorded number>
23.6

$$$$
>  <Compound>
CC(=O)N1CC[C@@H](n2ncc(Cl)c2C(=O)Nc2ncc(C#Cc3ccc(F)cc3)cc2C)[C@H](F)C1 [Compound 11]

>  <Target system>
CYP 1A2 (Homo sapiens, UniProt P05177)

>  <Readout units>
µM

>  <Result modifier>
>

>  <Recorded number>
30

$$$$

###

Measured Cmax, listed per entry.
assay: IV/PO pharmacokinetic study, dog (beagle); assay type: in vivo; settings: plasma, po 1 mg/kg

>  <Smiles entry>
CC(=O)N1CCC(n2ncc(Cl)c2C(=O)Nc2ncc(C#Cc3ccccc3)cc2C)CC1

>  <Readout units>
ng/mL

>  <Cmax>
315

$$$$
>  <Smiles entry>
CC(=O)N1CC[C@@H](n2ncc(Cl)c2C(=O)Nc2ncc(C#Cc3ccc(F)cc3)cc2C)[C@H](F)C1

>  <Readout units>
ng/mL

>  <Cmax>
263

$$$$

###

test: Plasma protein binding, mouse; type: in vitro ADME; conditions: mouse, plasma, pH 7.4, mouse plasma, bound; read-out: PPB mouse (converted)
The entries below come with measured fraction unbound at 6 h, 5 µM values attached.

>  <Molecule>
CC(=O)N1CC(F)(Cn2ncc(Cl)c2C(=O)Nc2ncc(C#Cc3ccccc3)cc2C)C1 [Compound 15e]

>  <fraction unbound at 6 h, 5 µM>
0.022

$$$$
>  <Molecule>
Cc1cc(C#Cc2ccccc2)cnc1NC(=O)c1c(Cl)cnn1CCCC#N [Compound 15d]

>  <fraction unbound at 6 h, 5 µM>
0.001

$$$$
>  <Molecule>
CC(=O)N1CCC(n2ncc(Cl)c2C(=O)Nc2ncc(C#Cc3ccccc3)cc2C)CC1

>  <fraction unbound at 6 h, 5 µM>
0.018

$$$$
>  <Molecule>
CC(=O)N[C@H]1CC[C@@H](n2ncc(Cl)c2C(=O)Nc2ncc(C#Cc3ccccc3)cc2C)CC1 [Compound 15f]

>  <fraction unbound at 6 h, 5 µM>
0.008

$$$$

###

assay: IV/PO pharmacokinetic study, NHP (cyno); type: in vivo; settings: cynomolgus monkey, plasma, iv 1 mg/kg, read-out: Vss
Measured Vd values are reported for all entries that follow.

>  <Smiles entry>
CC(=O)N1CCC(n2ncc(Cl)c2C(=O)Nc2ncc(C#Cc3ccccc3)cc2C)CC1

>  <Vd (L/kg)>
2.1

$$$$
>  <Smiles entry>
CC(=O)N1CC[C@@H](n2ncc(Cl)c2C(=O)Nc2ncc(C#Cc3ccc(F)cc3)cc2C)[C@H](F)C1

>  <Vd (L/kg)>
4.4

$$$$

###

target: human TREK-2 (hTREK-2) (Homo sapiens, UniProt P57789); test: TREK-2 thallium flux assay (HEK293 cells stably expressing hTREK-2); conditions: human TREK-2, thallium flux; read-out: h TREK-2 Tl+ IC50
Sequence (P57789 whole entry): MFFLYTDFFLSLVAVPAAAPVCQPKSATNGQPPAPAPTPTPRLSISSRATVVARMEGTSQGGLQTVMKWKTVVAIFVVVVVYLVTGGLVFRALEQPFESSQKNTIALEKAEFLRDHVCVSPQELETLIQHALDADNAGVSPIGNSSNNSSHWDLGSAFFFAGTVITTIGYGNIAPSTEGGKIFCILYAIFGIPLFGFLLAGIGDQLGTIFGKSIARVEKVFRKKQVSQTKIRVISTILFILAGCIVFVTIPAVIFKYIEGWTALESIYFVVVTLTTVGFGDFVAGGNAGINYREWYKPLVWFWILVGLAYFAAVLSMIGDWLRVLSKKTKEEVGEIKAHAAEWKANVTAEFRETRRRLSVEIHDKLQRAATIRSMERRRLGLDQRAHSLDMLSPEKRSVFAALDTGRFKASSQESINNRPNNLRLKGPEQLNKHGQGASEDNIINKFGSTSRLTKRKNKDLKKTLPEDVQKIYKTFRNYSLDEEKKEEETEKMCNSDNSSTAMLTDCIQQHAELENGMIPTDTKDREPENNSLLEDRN
pIC50: −log10 of the molar value.

>  <Molecule>
CC(=O)N1CCC(n2ncc(Cl)c2C(=O)Nc2ncc(C#Cc3ccccc3)cc2C)C(F)C1 (centres unmarked) [Compound 16a]

>  <pIC50>
6.55

$$$$
>  <Molecule>
CC(=O)N1CC[C@@H](n2ncc(Cl)c2C(=O)Nc2ncc(C#Cc3ccccc3)cc2C)[C@@H](F)C1 [Compound 16c]

>  <pIC50>
6.28

$$$$
>  <Molecule>
CC(=O)N1CC[C@@H](n2ncc(Cl)c2C(=O)Nc2ncc(C#Cc3ccccc3)cc2C)[C@H](F)C1 [Compound 16b]

>  <pIC50>
6.54

$$$$
>  <Molecule>
CC(=O)N1CC[C@@H](n2ncc(Cl)c2C(=O)Nc2ncc(C#Cc3ccc(F)cc3)cc2C)[C@H](F)C1

>  <pIC50>
6.54

$$$$
>  <Molecule>
CC(=O)N1CCC(n2ncc(Cl)c2C(=O)Nc2ncc(C#Cc3ccccc3)cc2C)CC1

>  <pIC50>
6.64

$$$$
>  <Molecule>
CC(=O)N1CC[C@H](n2ncc(Cl)c2C(=O)Nc2ncc(C#Cc3ccccc3)cc2F)[C@@H](F)C1 [Compound 16f]

>  <pIC50>
6.33

$$$$
>  <Molecule>
CC(=O)N1CC[C@H](n2ncc(Cl)c2C(=O)Nc2ncc(C#Cc3ccccc3)cc2C)[C@H](F)C1 [Compound 16d]

>  <pIC50>
6.28

$$$$
>  <Molecule>
CC(=O)N1CC[C@H](n2ncc(Cl)c2C(=O)Nc2ncc(C#Cc3ccccc3)cc2F)[C@H](F)C1 [Compound 16e]

>  <pIC50>
6.48

$$$$

###

test: CACO-2 efflux ratio; assay type: in vitro ADME; details: human, pH 7.4, efflux ratio, read-out: CACO-2 (ER)
Measurement name: efflux ratio

>  <Smiles entry>
CC(=O)N1CC[C@@H](n2ncc(Cl)c2C(=O)Nc2ncc(C#Cc3ccc(F)cc3)cc2C)[C@H](F)C1

>  <Result>
0.91

$$$$
>  <Smiles entry>
CC(=O)N1CCC(n2ncc(Cl)c2C(=O)Nc2ncc(C#Cc3ccccc3)cc2C)CC1

>  <Result>
0.7

$$$$

###

Consider the following molecules and their measured Vd readings.
test: IV/PO pharmacokinetic study, dog (beagle); format: in vivo; conditions: plasma, iv 1 mg/kg (10), 0.5 mg/kg (11), read-out: Vss

>  <Smiles entry>
CC(=O)N1CC[C@@H](n2ncc(Cl)c2C(=O)Nc2ncc(C#Cc3ccc(F)cc3)cc2C)[C@H](F)C1

>  <Vd, L/kg>
7.1

$$$$
>  <Smiles entry>
CC(=O)N1CCC(n2ncc(Cl)c2C(=O)Nc2ncc(C#Cc3ccccc3)cc2C)CC1

>  <Vd, L/kg>
5.9

$$$$

###

assay: IV/PO pharmacokinetic study, rat (SD); format: in vivo; conditions: Sprague-Dawley, plasma, po 1 mg/kg

>  <Compound>
CC(=O)N1CC[C@@H](n2ncc(Cl)c2C(=O)Nc2ncc(C#Cc3ccc(F)cc3)cc2C)[C@H](F)C1 [Compound 11]

>  <Cmax / ng/mL>
162

$$$$
>  <Compound>
CC(=O)N1CCC(n2ncc(Cl)c2C(=O)Nc2ncc(C#Cc3ccccc3)cc2C)CC1 [Compound 10]

>  <Cmax / ng/mL>
80

$$$$
